Assay: Spectrophotometric absorbance at 228 nm before and after 0.22 micron filtration (Example 12)
Assay type: physicochemical
Settings: 70% ethanol in water, organic solvent or mixture; as prepared in Example 1, 70% ethanol; read-out: concentration at which fully soluble
Description: A UV-VIS Genesys 105 Thermo Scientific spectrophotometer was used for the assay. Samples were placed in a UV Kurette Halbmicro/UV Cuvette semi micro [Cat no: 759150] for reading. Because the reference describes measurements at μg/ml concentrations, both the filtered and unfiltered 18 mg/ml solutions were diluted to 9 μg/ml and 12.5 μg/ml and measured again.
Counter-ions that a name gives are not always drawn.
measured-quantity: solubility at 10 min (mg/mL)
State the answer as a number, implicitly in mg/mL.

Query: Could you share which solubility at 10 min value was measured for CCCc1nn(C)c2c(=O)[nH]c(-c3cc(S(=O)(=O)N4CCN(C)CC4)ccc3OCC)nc12 [sildenafil citrate] ?
Response: 18
